test system: UO-31; experiment: NCI tumour cell line growth inhibition, 48 h
The source made the active and inactive calls. No stated cut-off is given here; in the data, active = GI50 up to about 1.1 µM and inactive = higher.
Form field: GI50 (one value per entry).

Example entries and their recorded answers appear below.
# compound, reading
rows = [
    ("CC1=NN(C(=O)c2ccccc2)C(=O)C1/N=N/c1ccccc1C(=O)O (centres undefined)", "3.75 µM (inactive)"),
    ("CCCN(CCC)CCc1cc(C(C)=O)n(S(=O)(=O)c2ccc(C)cc2)c1", "83.2 µM (inactive)"),
    ("CC1(C)CC2(C)CC1CC2NC(=O)CCN1CCOCC1 (centres undefined)", "> 100 µM (inactive)"),
    ("N=C1CSC2=NC3=C(CCC/C3=C\\c3ccccc3)C(c3ccccc3)N12 (centres undefined)", "11.2 µM (inactive)"),
    ("COc1cc(C(=O)C(CO)Oc2ccccc2OC)ccc1O (centres undefined)", "> 100 µM (inactive)"),
    ("COc1c(C(C)C)cc2c3c1OC(=O)[C@@]31CCCC(C)(C)C1CC2 (some centres undefined)", "11.7 µM (inactive)"),
    ("CCOC(=O)/C=C(\\C)c1ccc(C)cc1C", "> 100 µM (inactive)"),
    ("Cc1ccc(S(=O)(=O)N2CCCSCCSCCCN(S(=O)(=O)c3ccc(C)cc3)CC2)cc1", "> 100 µM (inactive)"),
]

Task: // GI50 lookup, key: Nc1ncnc2c1ncn2C1OC(CO)C(O)C(O)C1O (centres undefined)
Result: > 100 µM (inactive)

Task: Consider the compound shown here: `CN(C)NC1=NS(=O)(=O)c2cc3c(=O)n(C)[nH]c3cc2S1` What is its recorded GI50?
Result: > 10 µM (inactive)

Task: Fill in: GI50 of O=[N+]([O-])c1ccc(C2=NOC(c3ccccc3)N2C23CC4CC(CC(C4)C2)C3)cc1 (centres undefined) is ___
Result: 9.23 µM (inactive)

Task: Fill in: GI50 of CCC1(C)NN=c2s/c(=C/c3ccc(OC)cc3)c(=O)n2N1 (centres undefined) is ___
Result: > 100 µM (inactive)

Task: If you can, please state the reported GI50 value of COC(=O)C1CC2c3c(c4ccccc4n3C)CC(C1=O)N2C (centres undefined) .
Result: 21.4 µM (inactive)

Task: Report GI50 for `S=c1[nH]c(Cl)cc2nc(Cl)cn12` please.
Result: 4.7 µM (inactive)

Task: GI50 for CC(=O)C1(O)CC2(c3ccccc3)C(=O)C1(c1ccccc1)C(c1ccccc1)=C2c1ccccc1 (centres undefined) ?
Result: 58.5 µM (inactive)

Task: What does the record list as GI50 for C=CN1CCN(c2ccccc2)P1(=O)Oc1ccccc1 (centres undefined) ?
Result: 20 µM (inactive)

Task: Item `C=CNC(=S)n1nc(-c2ccccc2NC(=O)C(F)(F)F)c(=O)n(C(=S)NC=C)c1=S` has what recorded GI50?
Result: 13.9 µM (inactive)

Task: Consider the compound `CC(=O)c1cccc(Nc2c3ccccc3nc3occc23)c1` and give its measured GI50.
Result: 12.5 µM (inactive)

Task: Entry under review: `C/C=C(\C)CC/C=C/CO[Si](C)(C)C(C)(C)C` . Reported GI50?
Result: > 100 µM (inactive)

###

system: SF-268; assay: NCI tumour cell line growth inhibition, 48 h
The source made the active and inactive calls. Rule as the data show it: active = GI50 up to about 1.1 µM and inactive = higher.
Write down one outcome, taken from YES for active, NO for inactive

# example entries with known answers
# compound, answer.label
records = [
    ("CCOC(=O)C1C(O)CC2c3ccccc3-c3ccccc3C21 (centres undefined)", "NO"),
    ("CSC1=N/C(=C\\c2ccccc2)C(=O)N1CN1CCCCC1", "NO"),
    ("O=C1N/C(=N/N=C/C(O)C(O)C(O)C(O)CO)N/C1=C\\c1ccco1 (centres undefined)", "NO"),
    ("CN(C)c1ccc(/C=c2/c3ccccc3n3c2cc(C24CC5CC(CC(C5)C2)C4)[n+]3C)cc1", "YES"),
    ("CCOC(=O)NN(C(=O)OCC)C(=C(c1ccccc1)N1CCOCC1)N(NC(=O)OCC)C(=O)OCC", "NO"),
]

Task: How did this test come out for `Cc1c([N+](=O)[O-])oc2ccc3ccccc3c12` ?
Result: NO

Task: Record lookup: outcome of this test for `CC1=NN(C(=O)Cc2ccccc2)C(=O)/C1=C\c1ccc(O)cc1` ?
Result: NO

Task: What was the test verdict on `COc1cc(-c2cc(=O)c3cc4c(cc3[nH]2)OCO4)cc(OC)c1O` ?
Result: NO

Task: Which result was noted for this compound in the test: `CSc1ncc2c(C#N)c3ccccn3c(=O)c2n1`
Result: NO

###

Each item that follows carries a reported GI50.
tested on: SF-295; experiment: NCI tumour cell line growth inhibition, 48 h
The source made the active and inactive calls. Rule as the data show it: active = GI50 up to about 1.1 µM and inactive = higher.

// worked examples, GI50 included
# structure.as.smiles, target.or.test.system, assay.readout, reading
data = [
    ("NC(CC(=O)Nc1cc(C(F)(F)F)ccc1Cl)=NO", "SF-295", "GI50", "> 100 µM (inactive)"),
    ("CCCCc1c(N(C)C)c(OC(C)=O)c(-c2cn(C)c3ccccc23)oc1=O", "SF-295", "GI50", "25.5 µM (inactive)"),
]

Task: Endpoint output: GI50 of `CC(C)c1cc(C(C)C)c(B(c2ccccc2)c2ccccc2)c(C(C)C)c1Br` . Value?
Result: > 100 µM (inactive)

###

tested on: MDA-MB-435; experiment: NCI tumour cell line growth inhibition, 48 h
Activity calls are given as the source filed them. Rule as the data show it: active = GI50 up to about 1.1 µM and inactive = higher.
Select the matching outcome among 1.0 (active), 0.0 (inactive)

Observe how each entry below is paired with its result.
# molecule, target.or.test.system, answer.label
data = [
    ("COc1c(OC)c(OC)c2c(=O)cc(-c3ccc(OC(C)C)cc3)oc2c1OC", "MDA-MB-435", 0.0),
    ("CNc1cc2c(c3ccccc13)C(CCl)CN2C(=O)c1cc2cc(OC)c(OC)c(OC)c2[nH]1 (stereo not given)", "MDA-MB-435", 1.0),
    ("COc1cc2c(c(OC)c1OC)C(=O)[C@@H](O)[C@H]2NC(N)=O", "MDA-MB-435", 0.0),
    ("C=CC[C@]12C[C@@H](C(=O)OC)N(C(=O)OC)[C@H]1N(S(=O)(=O)c1ccccc1)c1ccccc12", "MDA-MB-435", 0.0),
    ("Cc1cc(C)cc(Nc2cc(O)nc(O)n2)c1", "MDA-MB-435", 0.0),
    ("CN(/N=C/c1ccccn1)C1=NCCCN1", "MDA-MB-435", 0.0),
    ("Cc1cnc2[nH]c(-c3ccccc3)cc(=O)c2c1", "MDA-MB-435", 1.0),
    ("O=C(O)CCSC(=S)Nc1ccc([N+](=O)[O-])cc1", "MDA-MB-435", 0.0),
    ("O=C(C=P(c1ccccc1)(c1ccccc1)c1ccccc1)c1ccc(-c2ccc(F)cc2F)cc1", "MDA-MB-435", 0.0),
]

# ---- query molecule ----
Task: Field: outcome | Entry: `COCO[C@@H]1C[C@H]2C(=O)Nc3ccccc3C(=O)N2C1`
Result: 0.0

###

tested on: UACC-257; test: NCI tumour cell line growth inhibition, 48 h
Active and inactive are the calls of the source. Cut-off read from the data, not from the text of the source: active = GI50 up to about 1.1 µM and inactive = higher.
Give your call using only these classes: active, inactive

Past entries and their recorded results:
# structure.as.smiles, answer.label
measured = [
    ("Cc1cccc2sc(NC(=O)c3cc([N+](=O)[O-])ccc3Cl)nc12", "inactive"),
    ("O=c1ccc2c(Cl)cccc2o1", "inactive"),
]

Task: What did this assay record as the result for `C=CCN1C[C@H](C)N([C@@H](c2ccc(C(=O)N3CCCCC3)cc2)c2cccc(OC)c2)C[C@H]1C` ?
Result: inactive

Task: Name the outcome recorded for `[O-]c1c2cc(-[n+]3c(-c4ccccc4)cc(-c4ccccc4)cc3-c3ccccc3)cc1CO[C@@H](c1ccccc1)[C@H](c1ccccc1)OCCOCCO[C@@H](c1ccccc1)[C@H](c1ccccc1)OC2` in the assay.
Result: active

Task: Which outcome was assigned to `N=C(N)c1csc([C@@H]2O[C@H](CO)[C@@H](O)[C@H]2O)n1` in this test?
Result: inactive

Task: Hey, what did the test say about `O=C(NNC(=O)c1ccccc1O)c1cccs1` ?
Result: inactive

Task: Please share the test call associated with `N=C(N)NS(=O)(=O)c1ccc(Nc2c3ccccc3nc3c(C(=O)Nc4ccc(S(N)(=O)=O)cc4)ccc(Cl)c23)cc1` .
Result: inactive

###

test system: UACC-62; assay: NCI tumour cell line growth inhibition, 48 h
Calls of active or inactive are those of the source. No stated cut-off is given here; in the data, active = GI50 up to about 1.1 µM and inactive = higher. Square brackets hold non-standard residues; d marks the D form. Peptide text beside a SMILES is read from it. * marks the point of attachment. X26 = COC1=CC(=O)N(C(=O)[C@@H](O*)C(C)C)[C@H]1Cc1ccccc1; NMeV = CN[C@H](C(=O)O)C(C)C; Hexanoyl = CCCCCC(=O)*
Hi there, use one of these labels in your reply, thanks! YES = active, NO = inactive

# molecule, answer.label
records = [
    ("Cc1cc(S(=O)(=O)[N-]/C(=N/S(=O)(=O)c2ccc(Cl)cc2)[n+]2ccc(N(C)C)cc2)c(SCC(=O)O)cc1Cl", "NO"),
    ("O=C(NCCCCN(CCCNC(=O)C(F)(F)F)Cc1ccccc1)C(F)(F)F", "NO"),
    ("c1ccc(CN2CCCN3CCN(CCCN(Cc4ccccc4)CC3)CC2)cc1", "NO"),
    ("CN(/N=C/c1ccccn1)C1=NCCCN1", "NO"),
    ("O=C(/C=C/c1cccc(Br)c1)N1CCN(CCOC(c2ccccc2)c2ccccc2)CC1", "NO"),
]

Task: GET /call?item= CC(=O)Nc1ccc(C2CC(c3ccc([N+](=O)[O-])cc3)=Nc3ccccc3[S+]2[O-])cc1 (stereo unspecified) returns the recorded outcome of this test.
Result: NO

Task: Outcome logged for COC(=O)C1C(O)CC(c2ccccn2)N(Cc2ccccc2)C1c1ccccn1 (stereo unspecified) in this assay:
Result: NO

Task: Test call for this molecule, please: `N#Cc1cc(-c2nc3ccc(F)cc3s2)ccc1N`
Result: NO

Task: Hey, what did the test say about `CCOC(=O)c1c2c(n(C)c1-c1ccccc1)C(=O)C(C)=CC2=O` ?
Result: NO

Task: Assay outcome for `CN(/N=C(\C(=O)O)c1ccccc1)C1=NCCCN1` : what was it?
Result: NO

Task: I would be grateful if you could indicate the recorded call for `O=c1[nH]c(Cc2ccccc2)nc2c1sc1nc3ccccc3n12` .
Result: NO

Task: Please state the recorded outcome for this molecule: `CCN(CC)c1c(C(=O)/C=C/c2ccc(OC)cc2)c(-c2ccccc2)nn(C)c1=O`
Result: NO

Task: What is the recorded call for this molecule in the test? `Cc1ccc(S(=O)(=O)Nn2c(O)c(C#N)c(-c3ccc([N+](=O)[O-])cc3)c(C#N)c2=O)cc1`
Result: NO

Task: Dear colleague, could you share the recorded outcome for COc1cc(C2c3[nH]c4ccccc4c3[C@@H](Nc3ccc(C#N)cc3)[C@H]3COC(=O)N23)cc(OC)c1O (stereo partly specified) when you have a moment?
Result: YES

Task: Which result was noted for this molecule in the test: CCCCCC(=O)N[C@H](C(=O)N[C@H](C(=O)N(C)[C@H](C(=O)N1CCC[C@H]1C(=O)N1CCC[C@H]1C(=O)O[C@H](C(=O)N1C(=O)C=C(OC)[C@@H]1Cc1ccccc1)C(C)C)C(C)C)C(C)C)C(C)C (Hexanoyl-VV[NMeV]PP-X26)
Result: NO

Task: Entry `C/C(=N\NC(=S)N(C)C)c1nc2cccnc2[nH]1` : call = ?
Result: YES
